The measured values listed here are drawn from paper PMC6212790.

Biological target: GST-Rok (full length) (Bacillus subtilis subsp. subtilis str. …, UniProt O34857 1-191)
Sequence: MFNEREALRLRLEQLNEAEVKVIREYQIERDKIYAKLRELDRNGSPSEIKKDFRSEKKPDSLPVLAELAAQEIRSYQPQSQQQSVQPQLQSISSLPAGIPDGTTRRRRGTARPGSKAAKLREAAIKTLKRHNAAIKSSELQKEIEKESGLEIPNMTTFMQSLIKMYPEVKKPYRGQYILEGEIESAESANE
Assay: protein binding microarray; high values mean tight binding
Conditions: protein: recombinant; tags: GST (pTH5325, pDEST15-Magic modified); dsDNA, one strand shown
Whole data set: some 33,000 sequences, median “e-score” near -0.037, cut for the highest 2% near 0.34. This is one part of a sample in which the highest values are shown more often than they occur.
measuredEndpoint: binding signal

sequencecode=GAATATCA measured="0.18 E-score"
sequencecode=AATTATAA measured="0.361 E-score"
sequencecode=CAACGACG measured="-0.1 E-score"
sequencecode=AATATCTG measured="0.268 E-score"
sequencecode=TAGTAATA measured="0.408 E-score"
sequencecode=CACATATG measured="0.266 E-score"
sequencecode=CCGGTCGA measured="-0.102 E-score"
sequencecode=AAATAGTG measured="0.231 E-score"
sequencecode=ACCTTCTC measured="-0.145 E-score"
sequencecode=AAGTAATA measured="0.275 E-score"
sequencecode=TACCAAAA measured="0.165 E-score"
sequencecode=GGCAGTAC measured="-0.0236 E-score"
sequencecode=GAAGTTGC measured="0.0518 E-score"
sequencecode=AGCCCTAA measured="-0.164 E-score"
sequencecode=CAATATTA measured="0.254 E-score"
sequencecode=AAATAGTC measured="0.119 E-score"
sequencecode=AATATCTC measured="0.203 E-score"
sequencecode=CTGTCCAC measured="-0.116 E-score"
sequencecode=CCACTGAA measured="-0.106 E-score"
sequencecode=TGGCCGAA measured="-0.123 E-score"
sequencecode=GCGCATAC measured="0.0802 E-score"
sequencecode=CAAGTCAA measured="0.171 E-score"
sequencecode=CCTGGCGA measured="-0.199 E-score"
sequencecode=AAGTAACA measured="0.207 E-score"
sequencecode=TAATAGCA measured="0.257 E-score"
sequencecode=GAGTAATA measured="0.318 E-score"
sequencecode=CTATATTA measured="0.384 E-score"
sequencecode=AATTATAG measured="0.381 E-score"
sequencecode=CAGTAACA measured="0.0586 E-score"
sequencecode=CGTTTTAA measured="0.191 E-score"
sequencecode=CTCAGTTC measured="-0.0174 E-score"
sequencecode=AAATAGTT measured="0.4 E-score"
sequencecode=CCATATTA measured="0.165 E-score"
sequencecode=GACCATAA measured="-0.0227 E-score"
sequencecode=GATAGAAA measured="0.307 E-score"
sequencecode=ACTTCACT measured="0.0809 E-score"
sequencecode=TCCTACAA measured="0.0302 E-score"
sequencecode=CCTGAGCA measured="-0.194 E-score"
sequencecode=AAATTATA measured="0.413 E-score"
sequencecode=TACCATAA measured="0.336 E-score"
sequencecode=CCTGGTCA measured="-0.133 E-score"
sequencecode=GTTATTCA measured="0.0398 E-score"
sequencecode=AATTATCG measured="0.217 E-score"
sequencecode=GACTTTCA measured="-0.125 E-score"
sequencecode=AATTATAT measured="0.407 E-score"
sequencecode=AACATTAA measured="0.133 E-score"
sequencecode=CATTATAA measured="0.228 E-score"
sequencecode=CAAACGAA measured="0.108 E-score"
sequencecode=GGAATGTA measured="0.103 E-score"
sequencecode=ACGCTCCT measured="-0.000812 E-score"
sequencecode=AGATATTA measured="0.404 E-score"
sequencecode=GTGACGTA measured="0.0931 E-score"
sequencecode=GATTATAA measured="0.208 E-score"
sequencecode=CATTATAG measured="0.255 E-score"
sequencecode=CGGCCAAC measured="-0.111 E-score"
sequencecode=AATTGACG measured="0.213 E-score"
sequencecode=ACTGGCGG measured="-0.0567 E-score"
sequencecode=CAATATCA measured="0.183 E-score"
sequencecode=AATATTCC measured="0.131 E-score"
sequencecode=CGCGACAG measured="0.0354 E-score"
sequencecode=TAGTAACA measured="0.366 E-score"
sequencecode=AAATTATG measured="0.215 E-score"
sequencecode=GTGGCTGA measured="-0.0523 E-score"
sequencecode=ATATATCC measured="0.18 E-score"
sequencecode=AATAGAAC measured="0.0621 E-score"
sequencecode=CGATATTA measured="0.213 E-score"
sequencecode=TAATAGGA measured="0.202 E-score"
sequencecode=GTATATCA measured="0.208 E-score"
sequencecode=TAATTATA measured="0.385 E-score"
sequencecode=CTCTATTA measured="0.0982 E-score"
sequencecode=AAGTTGAG measured="-0.123 E-score"
sequencecode=GCGGATCA measured="-0.193 E-score"
sequencecode=CGCCCAAC measured="-0.14 E-score"
sequencecode=TATAGAAA measured="0.363 E-score"
sequencecode=GCAGACGC measured="-0.181 E-score"
sequencecode=AATTATAC measured="0.377 E-score"
sequencecode=TAATTAAA measured="0.259 E-score"
sequencecode=AAACAGGG measured="-0.0541 E-score"
sequencecode=CATATCTA measured="0.293 E-score"
sequencecode=ACAATAAC measured="0.214 E-score"
sequencecode=AATCGATA measured="0.281 E-score"
sequencecode=CAATTATG measured="0.175 E-score"
sequencecode=GATATCTA measured="0.4 E-score"
sequencecode=ACGGAAAC measured="-0.0398 E-score"
sequencecode=CCAACTGC measured="-0.00979 E-score"
sequencecode=GATATCAA measured="0.208 E-score"
sequencecode=TCGGTGAA measured="-0.0505 E-score"

* * *

Molecular target: GST-Rok (full length) (Bacillus subtilis subsp. subtilis str. …, UniProt O34857 1-191)
Sequence: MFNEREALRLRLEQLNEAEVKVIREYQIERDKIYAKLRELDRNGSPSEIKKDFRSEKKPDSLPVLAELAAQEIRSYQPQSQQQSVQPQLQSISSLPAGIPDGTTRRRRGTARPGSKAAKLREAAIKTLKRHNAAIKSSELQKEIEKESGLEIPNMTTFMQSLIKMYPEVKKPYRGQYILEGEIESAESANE
Assay: protein binding microarray; high values mean tight binding
Conditions: protein: recombinant; tags: GST (pTH5325, pDEST15-Magic modified); dsDNA, one strand shown
Whole data set: some 33,000 sequences, median “e-score” near -0.037, cut for the highest 2% near 0.34. This excerpt belongs to a sample that is enriched for the highest values.
measuredEndpoint: binding signal (E-score)

sequencecode=CAGTACTG measuredendpoint="binding signal" measured=0.0294
sequencecode=GAGCTAAC measuredendpoint="binding signal" measured=0.0297
sequencecode=CTATACAA measuredendpoint="binding signal" measured=0.296
sequencecode=CAACTACC measuredendpoint="binding signal" measured=0.303

* * *

Target: GST-Rok (full length) (Bacillus subtilis subsp. subtilis str. …, UniProt O34857 1-191)
Sequence: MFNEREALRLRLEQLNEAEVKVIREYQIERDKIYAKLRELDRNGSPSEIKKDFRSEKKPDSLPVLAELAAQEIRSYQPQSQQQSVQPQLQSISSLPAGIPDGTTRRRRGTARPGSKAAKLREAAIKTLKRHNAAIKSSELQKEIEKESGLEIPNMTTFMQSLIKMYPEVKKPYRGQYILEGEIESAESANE
Assay: protein binding microarray; Rok is a gene silencer of Bacillus subtilis; high values mean tight binding
Details: protein: recombinant; tags: GST (pTH5325, pDEST15-Magic modified); dsDNA, one strand shown
Whole data set: some 33,000 sequences, median “e-score” near -0.037, cut for the highest 2% near 0.34. What follows is part of a selection rich in the highest values, with near analogues and random picks from the rest.
Recorded measurements of binding signal, one per entry
measuredEndpoint: binding signal (E-score)

sequencecode=ACTGTTCT readoutunits=E-score measured=0.0222
sequencecode=AGTACGCA readoutunits=E-score measured=0.194
sequencecode=AACATAAG readoutunits=E-score measured=0.23
sequencecode=AAATAGCG readoutunits=E-score measured=0.0843
sequencecode=GCGGTAGA readoutunits=E-score measured=0.337
sequencecode=AAATAGCA readoutunits=E-score measured=0.0964
sequencecode=AAATGATC readoutunits=E-score measured=0.143
sequencecode=CAATAGTA readoutunits=E-score measured=0.341
sequencecode=AAATAGCC readoutunits=E-score measured=0.046
sequencecode=GAACTGAA readoutunits=E-score measured=-0.118
sequencecode=ACGGTAGA readoutunits=E-score measured=0.365
sequencecode=GCGGTAGC readoutunits=E-score measured=0.0476
sequencecode=CGGTAATC readoutunits=E-score measured=-0.0198
sequencecode=AGCGTCTA readoutunits=E-score measured=0.0457
sequencecode=GACGATGA readoutunits=E-score measured=-0.103
